# target of assay: Retinoic acid receptor RXR-alpha (Rattus norvegicus, UniProt Q05343)
# Sequence (Q05343 whole entry): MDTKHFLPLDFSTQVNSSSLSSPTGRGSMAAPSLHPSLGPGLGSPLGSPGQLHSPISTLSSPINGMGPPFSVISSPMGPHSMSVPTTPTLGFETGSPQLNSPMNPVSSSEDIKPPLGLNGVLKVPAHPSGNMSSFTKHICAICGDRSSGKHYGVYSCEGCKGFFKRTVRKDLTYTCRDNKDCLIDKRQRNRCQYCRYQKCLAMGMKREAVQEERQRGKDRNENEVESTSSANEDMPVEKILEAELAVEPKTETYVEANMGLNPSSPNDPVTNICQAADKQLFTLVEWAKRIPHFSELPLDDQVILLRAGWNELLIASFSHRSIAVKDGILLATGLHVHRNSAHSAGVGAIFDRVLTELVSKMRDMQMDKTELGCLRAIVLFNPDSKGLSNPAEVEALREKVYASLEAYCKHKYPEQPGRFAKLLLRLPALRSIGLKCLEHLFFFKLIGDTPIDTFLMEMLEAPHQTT
readout name: Ki (µM)
Give bare numbers, in µM.

Enquiry: Fill in Ki for record CC12NC(Cc3ccccc31)c1ccccc12 (stereo unspecified)
Return: 7.6
